Source listed as PubChem BioAssay.

# protocol: reversal of MRP1-mediated doxorubicin resistance, pilot screen, H69AR cells, doxorubicin co-treatment (AID 601)
# measurement conditions: H69AR cells + 2 uM doxorubicin, CellTiter-Glo, 72 h; measured here: viability with 2 uM doxorubicin; at 10 µM; stronger effect = lower value
Entries whose viability is below 90% take Criterion met; entries at or above 90% take Criterion not met.

molecule	class label
CCOc1ccc(NC(=O)CN2CCN(CC(=O)Nc3ccc(F)c(F)c3)CC2)cc1	Criterion met
O=C(O)c1[nH]nc2c1COc1ccccc1-2	Criterion not met
COc1ccc(C(=O)N2CCN(c3nc4cc(C)ccc4cc3C#N)CC2)c(OC)c1	Criterion not met
COCCn1nnnc1C(c1ccc(OC)cc1)N1CCN(c2ccccc2F)CC1 (stereo not drawn)	Criterion met
CN1C(=O)C(CC(=O)N2CCN(C(c3ccccc3)c3ccccc3)CC2)N(C)C1=O (stereo not drawn)	Criterion not met
C[C@H](NC(=O)Nc1ccccc1F)C(=O)O	Criterion not met
CC1N=C2c3ccccc3N=C(SCc3cc(=O)n4cc(Cl)ccc4n3)N2C1=O (stereo not drawn)	Criterion met
Cc1cnc(C(=O)OCC(=O)Nc2ccc(Oc3ccccc3)cc2)cn1	Criterion met
Cn1c(=O)[nH]c(=O)c2c1nc(N(CCO)Cc1ccccc1)n2Cc1ccccc1Cl	Criterion met
Cc1nc2cc(-n3ccc(=O)cc3)ccc2n1-c1ccccc1	Criterion met
COc1ccc(CCNC(=O)C2CCN(S(=O)(=O)c3cc(OC)ccc3OC)CC2)cc1	Criterion not met
CCC(=O)N1CCc2cc(S(=O)(=O)CCC(=O)Nc3c(C)n(C)n(-c4ccccc4)c3=O)ccc21	Criterion met
COC(=O)[C@H](C)NC(=O)Nc1cc(OC)ccc1OC	Criterion met
CCOC(=O)c1ccc(NC(=O)c2ccc(NS(C)(=O)=O)cc2)cc1	Criterion met
CCOc1cc(S(=O)(=O)N2CCC(Cc3ccccc3)CC2)c(OCC)cc1-n1cnnn1	Criterion met
Cc1cc(=O)n(-c2ccc3ccccc3n2)[nH]1	Criterion met
Cn1c(=O)[nH]c(=O)c2[nH]c(NCCCN3CCOCC3)nc21	Criterion met
